- Measurement Target: Mitogen-activated protein kinase 10 (Homo sapiens, UniProt P53779)
- Sequence (P53779 whole entry): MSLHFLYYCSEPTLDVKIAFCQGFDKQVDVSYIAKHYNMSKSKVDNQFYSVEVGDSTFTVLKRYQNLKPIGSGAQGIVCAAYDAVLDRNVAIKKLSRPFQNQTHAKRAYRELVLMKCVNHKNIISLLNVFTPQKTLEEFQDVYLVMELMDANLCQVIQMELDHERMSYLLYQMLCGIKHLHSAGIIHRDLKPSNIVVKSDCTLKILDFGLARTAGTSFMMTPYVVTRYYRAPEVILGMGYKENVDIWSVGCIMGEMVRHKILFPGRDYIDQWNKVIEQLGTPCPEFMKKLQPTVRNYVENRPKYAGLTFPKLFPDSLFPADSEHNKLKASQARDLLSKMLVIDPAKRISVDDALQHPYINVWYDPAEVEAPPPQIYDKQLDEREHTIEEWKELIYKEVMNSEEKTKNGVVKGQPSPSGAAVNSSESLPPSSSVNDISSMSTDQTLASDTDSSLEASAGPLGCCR
- Test Description: Dose response biochemical screening assay for inhibitors of c-Jun N-Terminal Kinase 3 (JNK3). [Related pubchem assays: 746 ]
Reported Metric: IC50

- Molecule: "CCOC(=O)CCC(NC(=O)c1ccc(NCN2C(=O)c3ccccc3C2=O)cc1)C(=O)OCC (centres undefined)"
  IC50: "13.1 µM (not active)"

Measured IC50 for this entry Cc1nn(-c2ccccc2)c2c1C(O)n1c(nc3ccccc31)S2 (centres undefined) on Mitogen-activated protein kinase 10 (Homo sapiens, UniProt P53779): > 93.1 µM (not active)

Measured IC50 for this entry COc1cc(CC(=O)Nc2nccs2)cc(OC)c1OC on Mitogen-activated protein kinase 10 (Homo sapiens, UniProt P53779): > 93.1 µM (not active)

Measured IC50 for this entry O=C1C(/C=N/c2ccccc2O)=C(O)c2ccccc21 on Mitogen-activated protein kinase 10 (Homo sapiens, UniProt P53779): 23.1 µM (not active)

====

- Measurement Target: Corticotropin-releasing factor receptor 2/Corticotropin-releasing factor-binding protein (Homo sapiens, UniProt P24387+Q13324)
- Sequence (Q13324 whole entry): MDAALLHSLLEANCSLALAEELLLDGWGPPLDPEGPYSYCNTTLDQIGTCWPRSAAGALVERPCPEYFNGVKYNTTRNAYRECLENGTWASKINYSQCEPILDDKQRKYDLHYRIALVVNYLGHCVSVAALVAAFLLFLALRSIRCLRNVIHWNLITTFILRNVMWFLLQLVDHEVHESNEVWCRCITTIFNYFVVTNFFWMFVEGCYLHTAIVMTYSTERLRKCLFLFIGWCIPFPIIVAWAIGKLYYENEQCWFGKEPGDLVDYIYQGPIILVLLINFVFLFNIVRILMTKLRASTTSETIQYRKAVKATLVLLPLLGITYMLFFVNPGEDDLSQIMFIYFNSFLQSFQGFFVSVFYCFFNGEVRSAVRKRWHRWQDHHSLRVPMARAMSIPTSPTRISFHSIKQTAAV
- Sequence (P24387 whole entry): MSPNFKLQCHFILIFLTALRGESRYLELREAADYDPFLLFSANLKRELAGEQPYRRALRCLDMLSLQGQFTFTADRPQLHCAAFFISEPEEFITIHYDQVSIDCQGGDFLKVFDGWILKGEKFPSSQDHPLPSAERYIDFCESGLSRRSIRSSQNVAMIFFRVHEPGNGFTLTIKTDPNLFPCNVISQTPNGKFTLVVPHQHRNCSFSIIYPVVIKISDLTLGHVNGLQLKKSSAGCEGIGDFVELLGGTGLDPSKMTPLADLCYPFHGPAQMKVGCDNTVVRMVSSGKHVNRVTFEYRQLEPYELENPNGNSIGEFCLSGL
- Test Description: Dose Response confirmation of uHTS hits for small molecule antagonists of the CRF-binding protein and CRF-R2 receptor complex.
- Assay type: functional
- Experimental Conditions: read-out: IC50_Mean
Activity calls are given as the source filed them.
Reported Metric: IC50

- Compound: "O=C(CC(CC(=O)c1ccccc1)c1ccncc1)c1ccccc1"
  IC50: "> 47.1 µM (inactive)"
- Compound: "CCOc1ccc(C(=O)OCC(=O)Nc2cccnc2Cl)cc1OCC"
  IC50: "> 47.1 µM (inactive)"
- Compound: "COCCn1nnnc1C(c1ccccc1)N1CCN(c2ccccc2)CC1 (stereo unspecified)"
  IC50: "> 47.1 µM (inactive)"

Here is another compound to look at.
IC50 measured on COc1ccc(-c2csc(NC(=O)CSc3nc(SC)ns3)n2)cc1 = 1.75 µM (active)

====

AC50 by entry:
- Measurement Target: Cytochrome P450 1A2 (Homo sapiens);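 further: PubChem cytochrome P450 panel assay, CYP1A2 panel member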
- Sequence (P05177 whole entry): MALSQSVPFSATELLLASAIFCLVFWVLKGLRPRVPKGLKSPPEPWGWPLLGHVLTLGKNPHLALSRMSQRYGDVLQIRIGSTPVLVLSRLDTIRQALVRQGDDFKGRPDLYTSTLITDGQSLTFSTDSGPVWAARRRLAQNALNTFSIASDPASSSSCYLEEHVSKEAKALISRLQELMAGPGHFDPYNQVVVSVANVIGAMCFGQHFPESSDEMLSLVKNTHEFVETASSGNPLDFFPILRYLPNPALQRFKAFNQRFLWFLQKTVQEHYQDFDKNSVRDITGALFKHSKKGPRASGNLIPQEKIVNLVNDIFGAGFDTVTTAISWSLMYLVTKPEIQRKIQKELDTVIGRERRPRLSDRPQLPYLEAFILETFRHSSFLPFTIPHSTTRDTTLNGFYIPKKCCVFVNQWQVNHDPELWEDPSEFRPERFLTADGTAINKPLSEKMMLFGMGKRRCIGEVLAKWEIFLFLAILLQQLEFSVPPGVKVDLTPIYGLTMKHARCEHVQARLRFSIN

Consider the worked cases shown below.
- Structure Smiles: "Cc1ccccc1-c1cc(C(=O)Nc2nc3c(s2)CCCC3)c2ccccc2n1"
  Endpoint Result: "3.55 µM (inconclusive)"
- Structure Smiles: "O=c1c(-c2ccc(Cl)cc2)nc2cnc(Nc3ccccc3)nc2n1C[C@H]1CCCO1"
  Endpoint Result: "12.6 µM (inconclusive)"
- Structure Smiles: "CN1CCN(CCc2ccc(Cl)c(Cl)c2)CC1"
  Endpoint Result: "25.1 µM (inconclusive)"
- Structure Smiles: "CCOC(=O)c1ncn2c1[C@H]1CCCN1C(=O)c1cc(OC)ccc1-2"
  Endpoint Result: "39.8 µM (inconclusive)"
- Structure Smiles: "COC(=O)[C@@]1(Cc2ccc(OC)cc2)[C@H]2c3cc(C(=O)N(C)C)n(CCN4CNCC4=O)c3C[C@H]2CN1C(=O)c1ccccc1"
  Endpoint Result: "20 µM (inconclusive)"
- Structure Smiles: "CCCN(CCC)[C@@H]1CCc2c(OC)cccc2[C@@H]1C"
  Endpoint Result: "31.6 µM (inconclusive)"
- Structure Smiles: "CCc1ccc(N2C(=O)/C(=C/c3cccs3)N(CC(=O)OC)C2=S)cc1"
  Endpoint Result: "15.8 µM (inconclusive)"
- Structure Smiles: "NC[C@](O)(CS(=O)(=O)O)c1ccc(Cl)cc1"
  Endpoint Result: "31.6 µM (inconclusive)"

Here is another compound to look at.
AC50 measured on CCC(CC)C(=O)Nc1cccc(/C(C)=N\NC(=O)c2ccc(C)s2)c1 = 3.16 µM (inconclusive)

====

- Test Description: inhibitors of firefly luciferase expression or activity, dose response, H4 neuroglioma cells, luminescence (AID 1990)
- Assay type: functional, cell-based
The source made the active and inactive calls.
EC50 by entry:

Consider the worked cases shown below.
- Compound: "COc1ccc(-n2nc3c(N4CCC(C(=O)NCc5ccco5)CC4)nnc(C)c3c2C)cc1"
  Reported Metric: "EC50"
  Endpoint Result: "> 120 µM (not active)"
- Compound: "COc1ccc(CCNCC(O)Cn2c3ccccc3c3ccccc32)cc1OC (stereo not given)"
  Reported Metric: "EC50"
  Endpoint Result: "8.76 µM (active)"
- Compound: "COc1ccc(NS(=O)(=O)c2cccc(N3CC(=O)C(c4ccccc4)=C3N)c2)cc1"
  Reported Metric: "EC50"
  Endpoint Result: "> 120 µM (not active)"

EC50 measured on Cc1ccc(NC(=O)c2nc[nH]c2C(=O)N[C@@H](C)c2ccccc2)cc1 = 17.3 µM (active)

EC50 measured on Cc1ccccc1C(=O)O/N=C/c1c(N2CCOCC2)n(C)c2ccccc12 = 0.455 µM (active)

====

- Measurement Target: High affinity choline transporter 1 (Homo sapiens, UniProt Q9GZV3)
- Sequence (Q9GZV3 whole entry): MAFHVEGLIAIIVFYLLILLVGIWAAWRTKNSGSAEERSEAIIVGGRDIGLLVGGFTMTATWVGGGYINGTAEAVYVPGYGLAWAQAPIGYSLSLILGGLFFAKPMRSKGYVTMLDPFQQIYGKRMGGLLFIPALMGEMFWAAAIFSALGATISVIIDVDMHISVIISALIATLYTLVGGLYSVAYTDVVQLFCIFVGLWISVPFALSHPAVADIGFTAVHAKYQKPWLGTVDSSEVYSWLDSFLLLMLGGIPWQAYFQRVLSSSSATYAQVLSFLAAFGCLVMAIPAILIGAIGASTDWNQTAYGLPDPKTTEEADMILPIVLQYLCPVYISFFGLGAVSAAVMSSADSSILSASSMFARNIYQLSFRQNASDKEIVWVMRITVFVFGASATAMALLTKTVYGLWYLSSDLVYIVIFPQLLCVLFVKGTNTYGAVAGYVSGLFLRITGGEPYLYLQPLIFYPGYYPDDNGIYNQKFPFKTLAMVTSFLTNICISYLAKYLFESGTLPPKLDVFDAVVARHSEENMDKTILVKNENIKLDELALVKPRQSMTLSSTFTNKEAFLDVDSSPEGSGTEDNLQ
- Test Description: CHT inhibitors, dose response, cell-based, 5-point CRC, membrane potential dye (AID 504840)
- Assay type: functional
Structures can show the parent of a compound that is named as a salt. Calls of active or inactive are those of the source.
Reported Metric: IC50

Consider the worked cases shown below.
- Molecule: "CC(C)COc1nc2ccccc2nc1N1CCN(C)CC1"
  IC50: "15.1 µM (active)"
- Molecule: "Cc1ccc(C2CC2C(=O)NN=C(S)Nc2cccc(Cl)c2)cc1 (stereo unspecified)"
  IC50: "15.8 µM (active)"
- Molecule: "O=C(Nc1cc(C(F)(F)F)ccc1-n1cncn1)c1ccc([N+](=O)[O-])o1"
  IC50: "11 µM (active)"
- Molecule: "Cc1ccccc1C(=O)O/N=C/c1c(N2CCOCC2)n(C)c2ccccc12"
  IC50: "21.6 µM (active)"
- Molecule: "N=C(N)SCc1ccccn1"
  IC50: "13.2 µM (active)"
- Molecule: "CCOC(=O)N1CCN(C(=O)c2oc3ccc(S(=O)(=O)N4CCCCCC4)cc3c2C)CC1"
  IC50: "13.2 µM (active)"
- Molecule: "Cc1csc(=N)n1CC(=O)N1CCc2ccccc21"
  IC50: "13.2 µM (active)"
- Molecule: "CC(C)(C)NCC(O)c1cc(Cl)c(N)c(Cl)c1 (stereo unspecified) [CLENBUTEROL HYDROCHLORIDE]"
  IC50: "0.0288 µM (active)"

IC50 measured on COc1ccc(C(=O)c2c3ccc(C(F)(F)F)cc3[n+]([O-])n2CCCN)cc1 = 9.03 µM (active)

IC50 measured on Fc1ccc(Nc2nnc(C(F)(F)F)s2)cc1Cl = 11 µM (active)

IC50 measured on Cc1ccc(NC(S)=Nc2ccc3[nH]c(O)nc3c2)cc1C = 14.5 µM (active)
